biological target: recombinant poly(ADP-ribose) polymerase 1 (PARP1) (Homo sapiens); test: biochemical; conditions: inhibition of PARP1 enzyme activity, chemiluminescence
Sequence (P09874 whole entry): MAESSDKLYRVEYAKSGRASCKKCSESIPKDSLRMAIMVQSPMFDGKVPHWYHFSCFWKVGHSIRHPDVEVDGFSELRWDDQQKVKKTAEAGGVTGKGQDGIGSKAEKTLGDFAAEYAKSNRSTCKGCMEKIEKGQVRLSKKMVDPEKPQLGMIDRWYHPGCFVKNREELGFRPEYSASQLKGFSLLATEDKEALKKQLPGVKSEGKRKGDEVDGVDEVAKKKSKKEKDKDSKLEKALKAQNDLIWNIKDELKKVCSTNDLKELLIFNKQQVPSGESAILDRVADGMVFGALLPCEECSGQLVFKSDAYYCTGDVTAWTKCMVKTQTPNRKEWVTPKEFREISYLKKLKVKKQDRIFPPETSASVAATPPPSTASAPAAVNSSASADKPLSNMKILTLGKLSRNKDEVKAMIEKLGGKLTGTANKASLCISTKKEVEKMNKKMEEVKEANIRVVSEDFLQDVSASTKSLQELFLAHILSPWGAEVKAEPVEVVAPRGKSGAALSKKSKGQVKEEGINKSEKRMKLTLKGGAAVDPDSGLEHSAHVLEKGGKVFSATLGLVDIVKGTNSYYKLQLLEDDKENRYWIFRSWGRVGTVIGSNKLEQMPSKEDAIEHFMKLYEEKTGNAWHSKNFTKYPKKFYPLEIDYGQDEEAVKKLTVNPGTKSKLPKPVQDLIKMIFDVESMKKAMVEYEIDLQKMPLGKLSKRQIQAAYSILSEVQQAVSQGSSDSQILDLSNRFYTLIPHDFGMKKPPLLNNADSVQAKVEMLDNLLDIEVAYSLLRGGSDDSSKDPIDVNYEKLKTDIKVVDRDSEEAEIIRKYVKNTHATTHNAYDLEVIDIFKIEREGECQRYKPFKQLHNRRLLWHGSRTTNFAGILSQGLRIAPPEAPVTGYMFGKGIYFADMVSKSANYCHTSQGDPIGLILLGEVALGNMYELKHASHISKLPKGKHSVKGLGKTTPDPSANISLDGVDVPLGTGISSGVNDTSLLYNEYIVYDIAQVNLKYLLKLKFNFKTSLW
Kindly apply the following: yes if IC50 is less than 1 nM, no in every other case.

Would you please look over these solved cases?
[[record]]
record_smiles = "CNC(=O)c1ccc(N2CCN(Cc3ccc4c(c3)[nH]c(=O)c3c(C)cnn34)CC2)c(Cl)n1"
answer_label = "no"

[[record]]
record_smiles = "CNC(=O)c1ccc(N2CCN(Cc3ccc4c(c3)[nH]c(=O)c3cc(C)nn34)CC2)c(Cl)n1"
answer_label = "no"

[[record]]
record_smiles = "CCNC(=O)c1ccc(N2CCN(Cc3ccc4c([nH]c(=O)c5ccnn54)c3F)CC2)c(F)n1"
answer_label = "no"

[[record]]
record_smiles = "CNC(=O)c1ccc(N2CCN(Cc3cc(F)c4c(c3)[nH]c(=O)n3cccc43)CC2)c(C)n1"
answer_label = "yes"

[[record]]
record_smiles = "Cc1nc(C(=O)NC2CC2)ccc1N1CCN(Cc2ccc3c(c2)[nH]c(=O)c2ccnn23)CC1"
answer_label = "yes"


API: the following record is the query input.
Task: IC50 under 1 nM? Item: CNC(=O)c1ccc(N2CCN(Cc3cc(F)c4c(c3)[nH]c(=O)c3c(C)cnn34)CC2)c(Cl)n1
Output: no

====

molecular target: recombinant poly(ADP-ribose) polymerase 2 (PARP2) (Homo sapiens); assay: biochemical; conditions: inhibition of PARP2 enzyme activity, chemiluminescence
Sequence (Q9UGN5 whole entry): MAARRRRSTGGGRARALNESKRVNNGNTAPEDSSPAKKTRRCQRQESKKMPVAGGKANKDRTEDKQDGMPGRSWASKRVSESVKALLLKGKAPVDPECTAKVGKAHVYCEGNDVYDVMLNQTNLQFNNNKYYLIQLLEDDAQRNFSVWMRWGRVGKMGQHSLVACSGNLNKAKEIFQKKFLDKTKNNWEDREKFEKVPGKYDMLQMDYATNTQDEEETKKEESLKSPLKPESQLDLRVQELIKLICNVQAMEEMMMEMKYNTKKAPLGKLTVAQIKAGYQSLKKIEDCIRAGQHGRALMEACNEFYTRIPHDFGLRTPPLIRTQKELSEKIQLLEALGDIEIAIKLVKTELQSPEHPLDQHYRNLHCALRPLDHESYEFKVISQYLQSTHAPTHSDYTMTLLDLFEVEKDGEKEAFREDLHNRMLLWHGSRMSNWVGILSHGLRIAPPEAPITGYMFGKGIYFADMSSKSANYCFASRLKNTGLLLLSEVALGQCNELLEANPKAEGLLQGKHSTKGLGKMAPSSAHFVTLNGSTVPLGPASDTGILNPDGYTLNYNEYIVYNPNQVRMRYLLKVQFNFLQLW
Attribute: IC50
The answer is to be given in nM; state only the numeric part.

Examples from the recorded data:
[[record]]
record_smiles = "CNC(=O)c1ccc(N2CCN(Cc3cc(F)c4c(c3)[nH]c(=O)n3cccc43)CC2)c(C)n1"
reported_value = 111

[[record]]
record_smiles = "CNC(=O)c1ccc(N2CCN(Cc3cc(F)c4c(c3)[nH]c(=O)c3cccn34)CC2)c(C)n1"
reported_value = 38.7

[[record]]
record_smiles = "CNC(=O)c1ccc(N2CCN(Cc3ccc4c([nH]c(=O)c5cc(C)nn54)c3F)CC2)c(F)n1"
reported_value = 288

[[record]]
record_smiles = "CNC(=O)c1ccc(N2CCN(Cc3ccc4c(c3)[nH]c(=O)c3ccnn34)CC2)c(F)n1"
reported_value = 41.4

[[record]]
record_smiles = "CNC(=O)c1ccc(N2CCN(Cc3cc(F)c4c(c3)[nH]c(=O)c3cc(Cl)nn34)CC2)c(C)n1"
reported_value = 84.1


Continue with the compound presented below.
Task: Give me measured IC50, please, for this compound: CNC(=O)c1ccc(N2CCN(Cc3cc(F)c4c(c3)[nH]c(=O)c3occc34)CC2)c(F)n1
Output: 353

====

target: recombinant poly(ADP-ribose) polymerase 1 (PARP1) (Homo sapiens); experiment: biochemical; settings: inhibition of PARP1 enzyme activity, chemiluminescence
Attribute: IC50
The answer is to be given in nM; state only the numeric part.

Task: Specify IC50 for CNC(=O)c1ccc(N2CCN(Cc3ccc4c(c3)[nH]c(=O)c3ccsc34)CC2)c(C)n1 [Example 85] , system recombinant poly(ADP-ribose) polymerase 1 (PARP1) (Homo sapiens).
Output: 1.52

Task: Specify IC50 for CNC(=O)c1ccc(N2CCN(Cc3ccc4c(c3)[nH]c(=O)c3occc34)CC2)c(C)n1 [Example 104] , system recombinant poly(ADP-ribose) polymerase 1 (PARP1) (Homo sapiens).
Output: 1.42

Task: Specify IC50 for CNC(=O)c1ccc(N2CCN(Cc3ccc4c([nH]c(=O)c5ccnn54)c3F)CC2)c(C)n1 [Example 94] , system recombinant poly(ADP-ribose) polymerase 1 (PARP1) (Homo sapiens).
Output: 2.69

Task: Specify IC50 for CNC(=O)c1ccc(N2CCN(Cc3cc(F)c4c5c(c(=O)[nH]c4c3)CCC5)CC2)c(F)n1 [Example 80] , system recombinant poly(ADP-ribose) polymerase 1 (PARP1) (Homo sapiens).
Output: 2.26

Task: Specify IC50 for CNC(=O)c1ccc(N2CCN(Cc3ccc4c(c3)[nH]c(=O)c3sccc34)CC2)c(C)n1 [Example 84] , system recombinant poly(ADP-ribose) polymerase 1 (PARP1) (Homo sapiens).
Output: 0.77

Task: Specify IC50 for Cc1nc(C(=O)NC2CC2)ccc1N1CCN(Cc2ccc3c(c2)[nH]c(=O)c2cccn23)CC1 [Example 59] , system recombinant poly(ADP-ribose) polymerase 1 (PARP1) (Homo sapiens).
Output: 1.39

Task: Specify IC50 for CNC(=O)c1ccc(N2CCN(Cc3ccc4c(c3)[nH]c(=O)c3c(Cl)cnn34)CC2)c(C)n1 [Example 98] , system recombinant poly(ADP-ribose) polymerase 1 (PARP1) (Homo sapiens).
Output: 1.91

Task: Specify IC50 for CCNC(=O)c1ccc(N2CCN(Cc3ccc4c5c(c(=O)[nH]c4c3)COC5)CC2)c(Cl)n1 [Example 6] , system recombinant poly(ADP-ribose) polymerase 1 (PARP1) (Homo sapiens).
Output: 1.86

Task: Specify IC50 for CNC(=O)c1ccc(N2CCN(Cc3cc(F)c4c(c3)[nH]c(=O)c3ccnn34)CC2)c(F)n1 [Example 44] , system recombinant poly(ADP-ribose) polymerase 1 (PARP1) (Homo sapiens).
Output: 1.76

Task: Specify IC50 for CNC(=O)c1ccc(N2CCN(Cc3cc(F)c4c(c3)[nH]c(=O)c3cc(C)nn34)CC2)c(Cl)n1 [Example 74] , system recombinant poly(ADP-ribose) polymerase 1 (PARP1) (Homo sapiens).
Output: 1.52

Task: Specify IC50 for CNC(=O)c1ccc(N2CCN(Cc3ccc4c(c3)[nH]c(=O)c3ccnn34)CC2)c(F)n1 [Example 36] , system recombinant poly(ADP-ribose) polymerase 1 (PARP1) (Homo sapiens).
Output: 0.44

Task: Specify IC50 for CNC(=O)c1ccc(N2CCN(Cc3ccc4c(c3)[nH]c(=O)c3cccn34)CC2)c(Cl)n1 [Example 35] , system recombinant poly(ADP-ribose) polymerase 1 (PARP1) (Homo sapiens).
Output: 0.81

Task: Specify IC50 for CNC(=O)c1ccc(N2CCN(Cc3ccc4c(c3)[nH]c(=O)c3cccn34)CC2)c(C)n1 [Example 24] , system recombinant poly(ADP-ribose) polymerase 1 (PARP1) (Homo sapiens).
Output: 0.83

Task: Specify IC50 for O=C(NC1CC1)c1ccc(N2CCN(Cc3cc(F)c4c(c3)[nH]c(=O)c3cccn34)CC2)c(Cl)n1 [Example 68] , system recombinant poly(ADP-ribose) polymerase 1 (PARP1) (Homo sapiens).
Output: 1.61

Task: Specify IC50 for Cc1nc(C(N)=O)ccc1N1CCN(Cc2cc(F)c3c(c2)[nH]c(=O)c2ccnn23)CC1 [Example 89] , system recombinant poly(ADP-ribose) polymerase 1 (PARP1) (Homo sapiens).
Output: 1.72

Task: Specify IC50 for CNC(=O)c1ccc(N2CCN(Cc3ccc4c([nH]c(=O)c5ccnn54)c3C)CC2)c(C)n1 [Example 129] , system recombinant poly(ADP-ribose) polymerase 1 (PARP1) (Homo sapiens).
Output: 1.48

Task: Specify IC50 for CNC(=O)c1ccc(N2CCN(Cc3ccc4c(c3)[nH]c(=O)c3nccn34)CC2)c(C)n1 [Example 25] , system recombinant poly(ADP-ribose) polymerase 1 (PARP1) (Homo sapiens).
Output: 1.93

Task: Specify IC50 for CNC(=O)c1ccc(N2CCN(Cc3cc(F)c4c(c3)[nH]c(=O)c3cc(Cl)nn34)CC2)c(F)n1 [Example 88] , system recombinant poly(ADP-ribose) polymerase 1 (PARP1) (Homo sapiens).
Output: 1.72

Task: Specify IC50 for CNC(=O)c1ccc(N2CCN(Cc3ccc4c([nH]c(=O)c5ccnn54)c3F)CC2)c(F)n1 [Example 95] , system recombinant poly(ADP-ribose) polymerase 1 (PARP1) (Homo sapiens).
Output: 1.82

====

molecular target: recombinant poly(ADP-ribose) polymerase 2 (PARP2) (Homo sapiens); experiment: biochemical; settings: inhibition of PARP2 enzyme activity, chemiluminescence
Attribute: log10 of IC50
On a log10 scale: recorded IC50, unit nM.

Examples from the recorded data:
[[record]]
compound = "CNC(=O)c1ccc(N2CCN(Cc3ccc4c(c3)[nH]c(=O)c3cc(C)nn34)CC2)c(Cl)n1 [Example 70]"
reported_value = 2.01

[[record]]
compound = "O=C(NC1CC1)c1ccc(N2CCN(Cc3ccc4c([nH]c(=O)c5ccnn54)c3F)CC2)c(F)n1 [Example 111]"
reported_value = 2.66


Task: Give me measured log10 of IC50, please, for this compound: CNC(=O)c1ccc(N2CCN(Cc3ccc4c(c3)[nH]c(=O)c3c(C)c(C)nn34)CC2)c(C)n1 [Example 101]
Output: 1.55

Task: Give me measured log10 of IC50, please, for this compound: O=C(NC1CC1)c1ccc(N2CCN(Cc3cc(F)c4c(c3)[nH]c(=O)c3cccn34)CC2)c(F)n1 [Example 67]
Output: 1.68

Task: Give me measured log10 of IC50, please, for this compound: CCNC(=O)c1ccc(N2CCN(Cc3cc(F)c4c(c3)[nH]c(=O)c3ccnn34)CC2)c(C)n1 [Example 91]
Output: 2.80
